Catalogue of compounds with associated IC50
SUBJECT OF TEST: cyclin E/CDK2 enzyme (Homo sapiens, UniProt P24941)
Construct: made in house; host or cells: Sf9 insect cells, recombinant baculovirus
ASSAY COMMENT: CDK2 ELISA kinase assay (phospho-Rb ser 795 detection)
Assay type: biochemical
MEASUREMENT CONTEXT: In Vitro Enzyme Assays, read-out: CDK2 IC50
MEASURE NAME: IC50

> print(dat)
                                   compound  assay.value
1  CC(C)N1CCN(c2ccc(N/C=C3\C(=O)NC(=O)c4ccc(I)cc43)cc2)CC1      > 50 µM
2  COC(C)C1CCCN1Cc1ccc(N/C=C2\C(=O)NC(=O)c3ccc(I)cc32)cc1 (stereo not drawn)      > 50 µM
3  O=C1NC(=O)c2ccc(Br)cc2/C1=C/NCc1ccc(NC(=O)C(F)(F)F)c(O)c1      > 50 µM

* * *

Catalogue of molecules with associated AUC(0-inf)
ASSAY COMMENT: I.V. and P.O. Dosing in Mice
Type: in vivo
MEASUREMENT CONTEXT: mouse, in vivo, iv, 2 mg/kg, dose i.v. 2 mg/kg, read-out: aucinf obs (i.v.)
MEASURE NAME: AUC(0-inf) (ng·h/mL)

> print(dat)
                                   molecule  measure.name  unit.info  assay.value
1  CC(C)(C)c1ccc2c(c1)/C(=C/NCc1ccc(-c3ccoc3)c(O)c1)C(=O)NC2=O [Example 535]    AUC(0-inf)    ng·h/mL          238
2  CCCOc1cnc(CN/C=C2\C(=O)NC(=O)c3ccc(C4CCCC4)cc32)cc1O [Example 538]    AUC(0-inf)    ng·h/mL         6630
3  O=C1NC(=O)c2ccc(I)cc2/C1=C/NCc1cc(O)c(-c2ccccc2)cn1 [Example 524]    AUC(0-inf)    ng·h/mL          952
4  O=C1NC(=O)c2ccc(I)cc2/C1=C/NCc1cc(O)c(-c2ccoc2)cn1 [Example 527]    AUC(0-inf)    ng·h/mL         6060
5  CC(C)(C)c1ccc2c(c1)/C(=C/NCc1cc(O)c(-c3ccccc3)cn1)C(=O)NC2=O [Example 531]    AUC(0-inf)    ng·h/mL         1450
6  CCCOc1cnc(CN/C=C2\C(=O)NC(=O)c3ccc(C(C)(C)C)cc32)cc1O [Example 530]    AUC(0-inf)    ng·h/mL         2240
7  O=C1NC(=O)c2ccc(I)cc2/C1=C/NCc1ccc(-c2ccoc2)c(O)c1 [Example 506]    AUC(0-inf)    ng·h/mL          423

* * *

Tested on: HCT-116
ASSAY COMMENT: Cytotoxicity assay (SRB), HCT-116
Type: cell-based
MEASUREMENT CONTEXT: Homo sapiens, HCT-116, 72 h, HCT116 cells, 3 days, SRB; read-out: In Vitro Cellular Activity IC50 HCT116
MEASURE NAME: IC50 (µM)

> print(dat)
                                   molecule  assay.value
1  CC(C)(C)c1ccc2c(c1)/C(=C/NCc1cc(O)c(-c3ccoc3)cc1F)C(=O)NC2=O          1.6
2  CN1CCCC1c1ccc(N/C=C2\C(=O)NC(=O)c3ccc(-c4ccoc4)cc32)cc1 (stereo not drawn)          2.8
3  O=Cc1ccc(-c2ccc3c(c2)/C(=C/Nc2ccc(CN4CCCCC4)cc2)C(=O)NC3=O)o1            1

* * *

Catalogue of compounds with associated IC50
SUBJECT OF TEST: cyclin D1/cdk 4 enzyme (Homo sapiens)
Construct: made in house; host or cells: Sf9 insect cells, recombinant baculovirus
Sequence (P11802 whole entry, species assumed): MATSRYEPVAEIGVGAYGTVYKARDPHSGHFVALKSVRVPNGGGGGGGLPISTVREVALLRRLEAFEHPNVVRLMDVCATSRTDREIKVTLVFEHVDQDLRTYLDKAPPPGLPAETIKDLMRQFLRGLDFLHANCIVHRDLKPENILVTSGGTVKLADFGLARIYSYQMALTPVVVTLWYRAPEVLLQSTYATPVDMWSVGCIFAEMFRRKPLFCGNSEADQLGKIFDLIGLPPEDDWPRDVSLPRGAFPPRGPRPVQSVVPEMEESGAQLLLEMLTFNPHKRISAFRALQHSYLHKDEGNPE
Sequence (P24385 whole entry partner, species assumed): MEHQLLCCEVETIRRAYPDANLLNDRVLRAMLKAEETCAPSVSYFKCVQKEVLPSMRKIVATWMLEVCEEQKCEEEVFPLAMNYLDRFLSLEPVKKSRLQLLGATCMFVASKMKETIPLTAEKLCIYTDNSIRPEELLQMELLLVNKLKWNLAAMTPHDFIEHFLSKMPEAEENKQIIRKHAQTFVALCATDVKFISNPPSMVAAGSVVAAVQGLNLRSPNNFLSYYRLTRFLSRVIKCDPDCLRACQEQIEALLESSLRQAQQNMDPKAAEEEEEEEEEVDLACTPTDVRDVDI
ASSAY COMMENT: CDK4 ELISA kinase assay (phospho-Rb ser 795 detection)
Format: biochemical
MEASUREMENT CONTEXT: In Vitro Enzyme Assays, 200 μM ATP, read-out: CDK4 IC50
MEASURE NAME: IC50

> print(dat)
                                   compound  assay.value
1  CN1CCCC1c1ccc(NC=C2C(=O)NC(=O)c3ccc(I)cc32)cc1 (stereo not drawn)      0.22 µM
2  CCCOc1ccc(CN/C=C2\C(=O)NC(=O)c3ccc(Br)cc32)cc1C(N)=O      > 50 µM
3  CCC(=O)Nc1ccc(CN/C=C2\C(=O)NC(=O)c3ccc(Br)cc32)cc1      > 50 µM

* * *

Test system: MCF-7
ASSAY COMMENT: Cytotoxicity assay (SRB), MCF-7
Assay type: cell-based
MEASUREMENT CONTEXT: Homo sapiens, MCF7, 72 h, MCF-7 cells, SRB, three days; read-out: In Vitro Cellular Activity IC50 MCF-7
MEASURE NAME: IC50 (µM)

> print(dat)
                                    compound  subject.of.test  unit.info  value.qualifier  assay.value
 1  O=C1NC(=O)c2ccc(I)cc2/C1=C/NCc1ccc(Cl)c(O)c1            MCF-7         µM                >           50
 2    O=C1NC(=O)c2ccc(Br)cc2/C1=C/NCc1ccncc1            MCF-7         µM                >           50
 3  O=C1NC(=O)c2ccc(Br)cc2/C1=C/NCc1ccc(Cl)cc1            MCF-7         µM                >           50
 4  O=C1NC(=O)c2ccccc2/C1=C/Nc1ccc(N2CCOCC2)cc1            MCF-7         µM                >           50
 5  CN1CCN(c2ccc(NC=C3C(=O)NC(=O)c4ccc(OCCN5CCOCC5)cc43)cc2)CC1            MCF-7         µM                =           26
 6   COc1ccc(N/C=C2\C(=O)NC(=O)c3ccccc32)cc1            MCF-7         µM                =           19
 7  C[C@@H]1CN(c2ccc(N/C=C3\C(=O)NC(=O)c4ccc(Br)cc43)cc2F)C[C@H](C)N1            MCF-7         µM                =          2.5
 8  O=C1NC(=O)c2ccc(I)cc2/C1=C/Nc1ccc2ncccc2c1            MCF-7         µM                =          3.1
 9  C[C@@H]1CN(c2cncc(N/C=C3\C(=O)NC(=O)c4ccc(-c5ccoc5)cc43)c2)C[C@H](C)N1            MCF-7         µM                =          1.4
10  COc1cnc(CN/C=C2\C(=O)NC(=O)c3ccc(Br)cc32)cc1O            MCF-7         µM                =          3.2
11  O=C1NC(=O)c2ccccc2/C1=C/Nc1ccc(CN2CCC(O)CC2)cc1            MCF-7         µM                =          8.7
12  COc1ccc(C(C)N/C=C2\C(=O)NC(=O)c3ccc(Br)cc32)cc1O (stereo not drawn)            MCF-7         µM                =          9.9
13  CN1Cc2ccc(N/C=C3\C(=O)NC(=O)c4ccc(Br)cc43)cc2C1            MCF-7         µM                =          5.5
14  CN1CCN(NC(=O)Nc2ccc(N/C=C3\C(=O)NC(=O)c4ccc(Br)cc43)cc2)CC1            MCF-7         µM                =          7.4
15  O=C1NC(=O)c2ccc(Br)cc2/C1=C/NCc1cccc(O)c1            MCF-7         µM                >           50

* * *

System: MCF-7
ASSAY COMMENT: Cytotoxicity assay (SRB), MCF-7
Assay type: cell-based
MEASUREMENT CONTEXT: Homo sapiens, MCF7, 72 h, MCF-7 cells, SRB, three days; read-out: In Vitro Cellular Activity IC50 MCF-7
Catalogue of molecules with associated IC50
MEASURE NAME: IC50 (µM)

> print(dat)
                                   molecule  value.qualifier  assay.value
1  O=C1NC(=O)c2ccccc2/C1=C/NCc1ccc(O)cc1 [Example 61]                >           50
2  COC[C@H]1CCCN1c1ccc2c(c1)/C(=C/Nc1ccc(CN3CCCCC3)cc1)C(=O)NC2=O [Example 121]                =          4.6
3  CN1CCC(N2CCN(c3ccc(N/C=C4\C(=O)NC(=O)c5ccc(I)cc54)cc3)CC2)CC1 [Example 387]                =           24
4  O=C1NC(=O)c2ccc(-c3ccc(Cl)cc3)cc2/C1=C/Nc1ccc(CN2CCCCC2)cc1 [Example 111]                =          2.1
5  O=C1NC(=O)c2ccc(-n3cccc3)cc2/C1=C/Nc1ccc(CN2CCCCC2)cc1 [Example 74]                =          2.1
6  COc1ccc(CN/C=C2\C(=O)NC(=O)c3ccc(F)cc32)cc1O [Example 68]                >           50
7  CN(C)CCCN(C)c1ccc(N/C=C2\C(=O)NC(=O)c3ccc(Br)cc32)cc1 [Example 275]                =          5.3
